Conditions: in acetone, 293.15 K
metric-name: solubility (mole fraction)

[[record]]
structure_smiles = "CN(C)/C=C/C(=O)c1cccnc1"
value_measured = 0.0108


###

Settings: in acetone, 328.15 K
metric-name: solubility (mole fraction)

[[record]]
structure_smiles = "CN(C)/C=C/C(=O)c1cccnc1"
value_measured = 0.0197


###

Conditions: in acetone, 288.15 K
metric-name: solubility (mole fraction)

[[record]]
structure_smiles = "CN(C)/C=C/C(=O)c1cccnc1"
metric_name = "solubility (mole fraction)"
value_measured = 0.00987


###

Conditions: in methanol, 298.15 K
metric-name: solubility (mole fraction)

[[record]]
structure_smiles = "CN(C)/C=C/C(=O)c1cccnc1"
metric_name = "solubility (mole fraction)"
value_measured = 0.0379


###

Details: in methanol, 328.15 K
metric-name: solubility (mole fraction)

[[record]]
structure_smiles = "CN(C)/C=C/C(=O)c1cccnc1"
value_measured = 0.0715


###

Conditions: in 1,4-dioxane, 323.15 K
metric-name: solubility (mole fraction)

[[record]]
structure_smiles = "CN(C)/C=C/C(=O)c1cccnc1"
value_measured = 0.0692


###

Conditions: in acetone, 303.15 K
metric-name: solubility (mole fraction)

[[record]]
structure_smiles = "CN(C)/C=C/C(=O)c1cccnc1"
value_measured = 0.0127


###

Conditions: in DMF, 283.15 K
metric-name: solubility (mole fraction)

[[record]]
structure_smiles = "CN(C)/C=C/C(=O)c1cccnc1"
value_measured = 0.112


###

Settings: in acetone, 318.15 K
metric-name: solubility (mole fraction)

[[record]]
structure_smiles = "CN(C)/C=C/C(=O)c1cccnc1"
value_measured = 0.0164


###

Settings: in cyclohexane, 298.15 K
metric-name: solubility (mole fraction)

[[record]]
structure_smiles = "CN(C)/C=C/C(=O)c1cccnc1"
value_measured = 0.00183


###

Conditions: in methanol, 288.15 K
metric-name: solubility (mole fraction)

[[record]]
structure_smiles = "CN(C)/C=C/C(=O)c1cccnc1"
value_measured = 0.0304


###

Details: in n-propanol, 293.15 K
metric-name: solubility (mole fraction)

[[record]]
structure_smiles = "CN(C)/C=C/C(=O)c1cccnc1"
value_measured = 0.0261


###

Details: in 1,4-dioxane, 308.15 K
metric-name: solubility (mole fraction)

[[record]]
structure_smiles = "CN(C)/C=C/C(=O)c1cccnc1"
metric_name = "solubility (mole fraction)"
value_measured = 0.048


###

Conditions: in n-propanol, 308.15 K
metric-name: solubility (mole fraction)

[[record]]
structure_smiles = "CN(C)/C=C/C(=O)c1cccnc1"
value_measured = 0.0371


###

Conditions: in THF, 298.15 K
metric-name: solubility (mole fraction)

[[record]]
structure_smiles = "CN(C)/C=C/C(=O)c1cccnc1"
value_measured = 0.0257


###

Conditions: in THF, 283.15 K
metric-name: solubility (mole fraction)

[[record]]
structure_smiles = "CN(C)/C=C/C(=O)c1cccnc1"
value_measured = 0.0216


###

Conditions: in acetone, 323.15 K
metric-name: solubility (mole fraction)

[[record]]
structure_smiles = "CN(C)/C=C/C(=O)c1cccnc1"
value_measured = 0.0178


###

Settings: in ethyl acetate, 278.15 K
metric-name: solubility (mole fraction)

[[record]]
structure_smiles = "CN(C)/C=C/C(=O)c1cccnc1"
value_measured = 0.0131


###

Details: in ethyl acetate, 293.15 K
metric-name: solubility (mole fraction)

[[record]]
structure_smiles = "CN(C)/C=C/C(=O)c1cccnc1"
value_measured = 0.0163


###

Conditions: in ethyl acetate, 318.15 K
metric-name: solubility (mole fraction)

[[record]]
structure_smiles = "CN(C)/C=C/C(=O)c1cccnc1"
value_measured = 0.0295


###

Details: in methanol, 318.15 K
metric-name: solubility (mole fraction)

[[record]]
structure_smiles = "CN(C)/C=C/C(=O)c1cccnc1"
metric_name = "solubility (mole fraction)"
value_measured = 0.0588


###

Conditions: in 1,4-dioxane, 313.15 K
metric-name: solubility (mole fraction)

[[record]]
structure_smiles = "CN(C)/C=C/C(=O)c1cccnc1"
value_measured = 0.054


###

Details: in 1,4-dioxane, 318.15 K
metric-name: solubility (mole fraction)

[[record]]
structure_smiles = "CN(C)/C=C/C(=O)c1cccnc1"
metric_name = "solubility (mole fraction)"
value_measured = 0.061

